Ref: patent US20220315554A1

molecular target: Human recombinant FAP (Homo sapiens, UniProt Q12884); assay: FRET-based FAP protease activity assay; format: biochemical; set-up: purchased R&D systems 3715-SE; settings: pIC50 Category (Activity), recombinant human FAP, FRET substrate, 37° C.
Sequence (Q12884 whole entry): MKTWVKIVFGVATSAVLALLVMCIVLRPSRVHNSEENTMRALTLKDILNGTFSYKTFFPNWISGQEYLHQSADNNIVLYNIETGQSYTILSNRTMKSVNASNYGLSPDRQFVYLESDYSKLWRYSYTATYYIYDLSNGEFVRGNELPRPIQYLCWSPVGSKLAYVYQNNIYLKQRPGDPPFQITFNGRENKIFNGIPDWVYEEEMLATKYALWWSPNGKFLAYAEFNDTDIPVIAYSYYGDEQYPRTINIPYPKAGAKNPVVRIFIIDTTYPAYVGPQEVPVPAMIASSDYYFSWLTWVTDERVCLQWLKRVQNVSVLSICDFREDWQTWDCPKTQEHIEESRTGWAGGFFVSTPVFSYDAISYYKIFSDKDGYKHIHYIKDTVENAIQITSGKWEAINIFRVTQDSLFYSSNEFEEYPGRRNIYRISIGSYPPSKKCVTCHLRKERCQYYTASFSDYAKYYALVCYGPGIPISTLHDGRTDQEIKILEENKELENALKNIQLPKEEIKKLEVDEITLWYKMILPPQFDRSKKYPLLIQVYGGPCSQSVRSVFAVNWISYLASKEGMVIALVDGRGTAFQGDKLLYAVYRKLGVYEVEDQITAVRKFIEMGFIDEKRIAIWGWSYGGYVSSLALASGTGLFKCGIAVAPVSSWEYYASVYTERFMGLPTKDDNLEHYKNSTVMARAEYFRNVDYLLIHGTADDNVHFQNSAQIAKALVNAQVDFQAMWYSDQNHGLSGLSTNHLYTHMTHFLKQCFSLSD
pIC50: −log10 of the molar value. Numbered stars: 1 amine (or outer) side, 2 acyl side, 3 side chain; on linkers, the order of the positions; unused ones are H or OH. Bridge positions count the residues as written; N and C are the ends. Peptide text beside a SMILES is read from it. * marks the point of attachment. DOTA = O=C(O)CN1CCN(CC(=O)O)CCN(CC(=O)*)CCN(CC(=O)O)CC1; mXylylene = c1cc(C[*:1])cc(C[*:2])c1; Hexanoyl = CCCCCC(=O)*
Property: pIC50

Per the records, this molecule ( C[C@@H](O)[C@@H]1NC(=O)[C@@H]2CCCN2C(=O)[C@@H]2CCCN2C(=O)[C@@H](NC(=O)CN2CCN(CC(=O)O)CCN(CC(=O)O)CCN(CC(=O)O)CC2)CSCc2cccc(c2)CSC[C@@H](C(=O)N[C@@H](CC(=O)O)C(=O)N[C@@H](Cc2c[nH]cn2)C(=O)N[C@@H](Cc2ccccc2)C(=O)N[C@@H](CCCNC(=N)N)C(=O)N[C@@H](CC(=O)O)C(N)=O)NC(=O)[C@H](Cc2ccccc2)NC(=O)[C@H](CCC(=O)O)NC1=O [3BP-3174] ({DOTA}-CPPTEFCDHFRD-NH2; linker 1-7 via mXylylene) ) has pIC50 equal to 6.10 to 7.00

// sample CCCCCC(=O)N[C@H]1CSCc2cccc(c2)CSC[C@@H](C(N)=O)NC(=O)[C@H](Cc2ccccc2)NC(=O)[C@H](CCC(=O)O)NC(=O)[C@H]([C@@H](C)O)NC(=O)[C@@H]2CCCN2C(=O)[C@@H]2CCCN2C1=O [3BP-3287] (Hexanoyl-CPPTEFC-NH2; linker 1-7 via mXylylene) , its pIC50 was 7.10 to 8.00
